Each item that follows carries a reported pIC50.
test system: CEM cells HIV-1 protection, formazan growth assay; experiment: NCI AIDS Antiviral Assay; conditions: measured here: growth of uninfected CEM cells
// returns pIC50 (minus log10 of molar concentration), number only

Query string: Quick one: pIC50 for Cc1ccc(S(=O)(=O)n2cc(C=O)c(-c3cn(S(=O)(=O)c4ccc(C)cc4)cc3-c3cn(S(=O)(=O)c4ccc(C)cc4)cc3C=O)c2)cc1 ?
Result string: 4.71

Query string: Quick one: pIC50 for CC(C)(CCCCC(C)(C)NCC1COc2ccccc2O1)NCC1COc2ccccc2O1 (stereo not given) ?
Result string: 5.14

Query string: Quick one: pIC50 for CCOC(=O)n1c(=O)nc2c3c(ncn21)Oc1c(c(-c2ccccc2)nn1-c1ccccc1)C3c1ccc(Cl)cc1 (stereo not given) ?
Result string: 5.64

Measured values drawn from PubChem BioAssay AID179 for this set.
